Entry source: patent US20110065632A1

target: hsst3 (Homo sapiens); construct: expressed in transfected cells; test: Somatostatin receptor radioligand binding assay, hsst3; settings: CHO-K1 membranes, [125I-Tyr11]SS-14; read-out: hsst3 Ki
Sequence (P32745 whole entry): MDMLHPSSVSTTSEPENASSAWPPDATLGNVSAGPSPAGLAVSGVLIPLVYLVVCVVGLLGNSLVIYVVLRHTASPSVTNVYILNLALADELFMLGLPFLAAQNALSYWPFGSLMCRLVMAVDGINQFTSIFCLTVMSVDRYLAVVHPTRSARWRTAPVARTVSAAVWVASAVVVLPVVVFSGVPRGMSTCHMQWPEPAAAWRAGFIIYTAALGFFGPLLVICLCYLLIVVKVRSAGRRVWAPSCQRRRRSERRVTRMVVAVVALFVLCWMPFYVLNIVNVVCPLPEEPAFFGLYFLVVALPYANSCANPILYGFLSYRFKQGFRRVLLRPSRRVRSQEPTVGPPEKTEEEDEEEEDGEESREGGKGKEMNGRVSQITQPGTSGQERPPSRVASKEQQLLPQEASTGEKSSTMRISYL
Numbered stars: 1 amine (or outer) side, 2 acyl side, 3 side chain; on linkers, the order of the positions; unused ones are H or OH. Bridge positions count the residues as written; N and C are the ends. Square brackets hold non-standard residues; d marks the D form. Peptide text beside a SMILES is read from it. * marks the point of attachment. X1 = CCCN1C[C@H](CSCC(=O)*)C[C@@H]2c3cccc4[nH]cc(c34)C[C@H]21; Pipz(1-CH2CO,4-CH2CH2NH) = O=C(CN1CCN(CCN[*:1])CC1)[*:2]; Abu = CC[C@H](N)C(=O)O
Endpoint: pKi
The read-out pKi is expressed as -log10 of concentration in moles per litre.

Compound: CCCN1C[C@H](CSCC(=O)NCCN2CCN(CC(=O)NCCN3CCN(CC(=O)N[C@H](Cc4ccccc4)C(=O)N[C@H]4CSSC[C@@H](C(=O)N[C@H](C(N)=O)[C@@H](C)O)NC(=O)[C@H](CC)NC(=O)[C@H](CCCCN)NC(=O)[C@@H](Cc5c[nH]c6ccccc56)NC(=O)[C@H](Cc5ccc(O)cc5)NC4=O)CC3)CC2)C[C@@H]2c3cccc4[nH]cc(c34)C[C@H]21 [Example 36] (X1-[Pipz(1-CH2CO,4-CH2CH2NH)][Pipz(1-CH2CO,4-CH2CH2NH)][dF]CY[dW]K[Abu]CT-NH2; disulfide 4-9)
pKi: 6.84

Compound: CCCN1C[C@H](CSCC(=O)N[C@H](Cc2ccccc2)C(=O)N[C@H]2CSSC[C@@H](C(=O)N[C@H](C(N)=O)[C@@H](C)O)NC(=O)[C@H](C(C)C)NC(=O)[C@H](CCCCN)NC(=O)[C@@H](Cc3c[nH]c4ccccc34)NC(=O)[C@H](Cc3ccc(OC(=O)CSC[C@@H]4C[C@@H]5c6cccc7[nH]cc(c67)C[C@H]5N(CCC)C4)c(I)c3)NC2=O)C[C@@H]2c3cccc4[nH]cc(c34)C[C@H]21 [Example 3]
pKi: 6.63

Compound: CCCN1C[C@H](CSCC(=O)NCCN2CCN(CC(=O)N[C@H](Cc3ccccc3)C(=O)N[C@H]3CSSC[C@@H](C(=O)N[C@H](C(N)=O)[C@@H](C)O)NC(=O)[C@H](CC)NC(=O)[C@H](CCCCN)NC(=O)[C@@H](Cc4c[nH]c5ccccc45)NC(=O)[C@H](Cc4ccc(O)cc4)NC3=O)CC2)C[C@@H]2c3cccc4[nH]cc(c34)C[C@H]21 [Example 24]
pKi: 6.81

Provide the reported pKi (system: hsst3 (Homo sapiens)) for CC[C@@H]1NC(=O)[C@H](CCCCN)NC(=O)[C@@H](Cc2c[nH]c3ccccc23)NC(=O)[C@H](Cc2ccc(O)cc2)NC(=O)[C@@H](NC(=O)[C@@H](Cc2ccccc2)NC(=O)CSC[C@@H]2C[C@@H]3c4cccc5[nH]cc(c45)C[C@H]3N(C)C2)CSSC[C@@H](C(=O)N[C@H](C(N)=O)[C@@H](C)O)NC1=O [Example 30]
7.31

----------
The entries below are paired with their reported pKi.
molecular target: UniProt:Q9UKP6; experiment: hUTII inhibition constant; type: binding; conditions: read-out: hUTII Ki
Sequence (Q9UKP6 whole entry): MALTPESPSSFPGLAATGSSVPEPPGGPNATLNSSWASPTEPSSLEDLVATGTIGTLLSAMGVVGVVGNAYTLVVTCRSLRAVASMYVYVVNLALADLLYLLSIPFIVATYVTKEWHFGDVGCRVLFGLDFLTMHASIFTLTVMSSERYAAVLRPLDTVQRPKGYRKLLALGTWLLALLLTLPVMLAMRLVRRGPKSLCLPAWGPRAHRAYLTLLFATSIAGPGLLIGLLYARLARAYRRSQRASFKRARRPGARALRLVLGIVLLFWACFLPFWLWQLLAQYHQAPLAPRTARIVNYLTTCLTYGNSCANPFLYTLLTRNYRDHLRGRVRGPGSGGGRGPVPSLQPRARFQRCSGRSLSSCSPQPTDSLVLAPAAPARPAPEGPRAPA
The read-out pKi is expressed as -log10 of concentration in moles per litre.

Provide the reported pKi (system: UniProt:Q9UKP6) for CCCN1C[C@H](CSCC(=O)N[C@H](Cc2ccccc2)C(=O)N[C@H]2CSSC[C@@H](C(=O)N[C@H](C(N)=O)[C@@H](C)O)NC(=O)[C@H](C(C)C)NC(=O)[C@H](CCCCN)NC(=O)[C@@H](Cc3c[nH]c4ccccc34)NC(=O)[C@H](Cc3ccc(O)c(I)c3)NC2=O)C[C@@H]2c3cccc4[nH]cc(c34)C[C@H]21 [Example 26]
7.27

Provide the reported pKi (system: UniProt:Q9UKP6) for CCCN1C[C@H](CSCC(=O)NCCCC[C@H](NC(=O)CSC[C@@H]2C[C@@H]3c4cccc5[nH]cc(c45)C[C@H]3N(CCC)C2)C(=O)N[C@H](Cc2ccccc2)C(=O)N[C@H]2CSSC[C@@H](C(=O)N[C@H](C(N)=O)[C@@H](C)O)NC(=O)[C@H](CC)NC(=O)[C@H](CCCCN)NC(=O)[C@@H](Cc3c[nH]c4ccccc34)NC(=O)[C@H](Cc3ccc(O)cc3)NC2=O)C[C@@H]2c3cccc4[nH]cc(c34)C[C@H]21 [Example 17]
6.30

----------
The entries below are paired with their reported pKi.
Biological target: hsst5 (Homo sapiens)
Construct: expressed in transfected cells
Sequence (P35346 whole entry): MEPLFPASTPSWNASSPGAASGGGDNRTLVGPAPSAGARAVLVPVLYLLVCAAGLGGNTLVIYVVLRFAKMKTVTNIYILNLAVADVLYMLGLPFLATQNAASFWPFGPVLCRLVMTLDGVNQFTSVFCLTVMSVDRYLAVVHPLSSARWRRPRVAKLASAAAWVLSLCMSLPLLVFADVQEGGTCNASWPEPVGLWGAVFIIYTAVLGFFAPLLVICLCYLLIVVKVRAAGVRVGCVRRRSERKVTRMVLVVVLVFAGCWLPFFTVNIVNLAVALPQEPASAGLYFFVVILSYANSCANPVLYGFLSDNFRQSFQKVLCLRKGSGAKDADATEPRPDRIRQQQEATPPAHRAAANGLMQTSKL
Test: Somatostatin receptor radioligand binding assay, hsst5
Conditions: hsst5 Ki, CHO-K1 membranes, [125I-Tyr11]SS-14
Protocol: Specificity and selectivity of the somatostatin analogues used to synthesize the somatostatin-dopamine chimers were determined by a radioligand binding assay on CHO-K1 cells stably transfected with each of the SSTR subtypes, as follows. Somatostatin analogs are also described in U.S. Patent Application Publication No. 02210006790. […]
Bridge positions count the residues as written; N and C are the ends. Square brackets hold non-standard residues; d marks the D form. Peptide text beside a SMILES is read from it. * marks the point of attachment. X2 = CN1C[C@H](CSCC(=O)*)C[C@@H]2c3cccc4[nH]cc(c34)C[C@H]21; Abu = CC[C@H](N)C(=O)O; AEEA = NCCOCCOCC(=O)O
The read-out pKi is expressed as -log10 of concentration in moles per litre.

Worked cases, pKi given:
Compound: CC[C@@H]1NC(=O)[C@H](CCCCN)NC(=O)[C@@H](Cc2c[nH]c3ccccc23)NC(=O)[C@H](Cc2ccc(O)cc2)NC(=O)[C@@H](NC(=O)[C@@H](Cc2ccc(O)cc2)NC(=O)[C@@H](Cc2ccc(O)cc2)NC(=O)[C@H](CCCCN)NC(=O)CSC[C@@H]2C[C@@H]3c4cccc5[nH]cc(c45)C[C@H]3N(C)C2)CSSC[C@@H](C(=O)N[C@H](C(N)=O)[C@@H](C)O)NC1=O [Example 33] (X2-K[dY][dY]CY[dW]K[Abu]CT-NH2; disulfide 4-9)
pKi: 8.01

Compound: CC[C@@H]1NC(=O)[C@H](CCCCN)NC(=O)[C@@H](Cc2c[nH]c3ccccc23)NC(=O)[C@H](Cc2ccc(O)cc2)NC(=O)[C@@H](NC(=O)[C@@H](Cc2ccc(O)cc2)NC(=O)[C@@H](Cc2ccc(O)cc2)NC(=O)[C@H](CCCCN)NC(=O)COCCOCCNC(=O)CSC[C@@H]2C[C@@H]3c4cccc5[nH]cc(c45)C[C@H]3N(C)C2)CSSC[C@@H](C(=O)N[C@H](C(N)=O)[C@@H](C)O)NC1=O [Example 34] ({X2-AEEA}-K[dY][dY]CY[dW]K[Abu]CT-NH2; disulfide 4-9)
pKi: 8.07

// below: pKi requested for another compound
Specify reported pKi for the compound shown: `CCCN1C[C@H](CSCC(=O)NCCCC[C@H](NC(=O)CSC[C@@H]2C[C@@H]3c4cccc5[nH]cc(c45)C[C@H]3N(CCC)C2)C(=O)N[C@H]2CSSC[C@@H](C(=O)N[C@H](C(N)=O)[C@@H](C)O)NC(=O)[C@H](CC)NC(=O)[C@H](CCCCN)NC(=O)[C@@H](Cc3c[nH]c4ccccc34)NC(=O)[C@H](Cc3ccc(O)cc3)NC2=O)C[C@@H]2c3cccc4[nH]cc(c34)C[C@H]21`
7.00

----------
target: hDA2; test: Dopamine-2 receptor radioligand binding assay; conditions: [3H]spiperone
Bridge positions count the residues as written; N and C are the ends. Square brackets hold non-standard residues; d marks the D form. Peptide text beside a SMILES is read from it. * marks the point of attachment. X1 = CCCN1C[C@H](CSCC(=O)*)C[C@@H]2c3cccc4[nH]cc(c34)C[C@H]21; Abu = CC[C@H](N)C(=O)O
The entries below are paired with their reported pKi.
The read-out pKi is expressed as -log10 of concentration in moles per litre.

Worked cases, pKi given:
Compound: CCCN1C[C@H](CSCC(=O)NCCCC[C@H](NC(C)=O)C(=O)N[C@H](Cc2ccc(O)cc2)C(=O)N[C@H](Cc2ccc(O)cc2)C(=O)N[C@H]2CSSC[C@@H](C(=O)N[C@H](C(N)=O)[C@@H](C)O)NC(=O)[C@H](CC)NC(=O)[C@H](CCCCN)NC(=O)[C@@H](Cc3c[nH]c4ccccc34)NC(=O)[C@H](Cc3ccc(O)cc3)NC2=O)C[C@@H]2c3cccc4[nH]cc(c34)C[C@H]21 [Example 11] (Ac-K(X1)[dY][dY]CY[dW]K[Abu]CT-NH2; disulfide 4-9)
pKi: 6.92

Compound: CCCN1C[C@H](CSCC(=O)NCCCC[C@H](NC(=O)CSC[C@@H]2C[C@@H]3c4cccc5[nH]cc(c45)C[C@H]3N(CCC)C2)C(=O)N[C@H](Cc2ccccc2)C(=O)N[C@H]2CSSC[C@@H](C(=O)N[C@H](C(N)=O)[C@@H](C)O)NC(=O)[C@H](CC)NC(=O)[C@H](CCCCN)NC(=O)[C@@H](Cc3c[nH]c4ccccc34)NC(=O)[C@H](Cc3ccc(O)cc3)NC2=O)C[C@@H]2c3cccc4[nH]cc(c34)C[C@H]21 [Example 17]
pKi: 7.75

Compound: CCCN1C[C@H](CSCC(=O)NCCCC[C@H](NC(=O)CSC[C@@H]2C[C@@H]3c4cccc5[nH]cc(c45)C[C@H]3N(CCC)C2)C(=O)N[C@H]2CSSC[C@@H](C(=O)N[C@H](C(N)=O)[C@@H](C)O)NC(=O)[C@H](CC)NC(=O)[C@H](CCCCN)NC(=O)[C@@H](Cc3c[nH]c4ccccc34)NC(=O)[C@H](Cc3ccc(O)cc3)NC2=O)C[C@@H]2c3cccc4[nH]cc(c34)C[C@H]21 [Example 9]
pKi: 8.08

Compound: CCCN1C[C@H](CSCC(=O)N[C@@H](CCCCN)C(=O)N[C@H](Cc2ccc(O)cc2)C(=O)N[C@H](Cc2ccc(O)cc2)C(=O)N[C@H]2CSSC[C@@H](C(=O)N[C@H](C(N)=O)[C@@H](C)O)NC(=O)[C@H](CC)NC(=O)[C@H](CCCCN)NC(=O)[C@@H](Cc3c[nH]c4ccccc34)NC(=O)[C@H](Cc3ccc(O)cc3)NC2=O)C[C@@H]2c3cccc4[nH]cc(c34)C[C@H]21 [Example 35] (X1-K[dY][dY]CY[dW]K[Abu]CT-NH2; disulfide 4-9)
pKi: 7.25

// below: pKi requested for another compound
Specify reported pKi for the compound shown: CCNC(=O)N(CCCN(C)CC(=O)N[C@H](Cc1ccccc1)C(=O)N[C@H]1CSSC[C@@H](C(=O)N[C@H](C(N)=O)[C@@H](C)O)NC(=O)[C@H](CC)NC(=O)[C@H](CCCCN)NC(=O)[C@@H](Cc2c[nH]c3ccccc23)NC(=O)[C@H](Cc2ccc(O)cc2)NC1=O)C(=O)[C@H]1CN[C@@H]2Cc3c[nH]c4cccc(c34)[C@H]2C1 [Example 7]
6.71
